- measured-target: human ALK3 (Homo sapiens (Human))
- Sequence (P36894 24-532): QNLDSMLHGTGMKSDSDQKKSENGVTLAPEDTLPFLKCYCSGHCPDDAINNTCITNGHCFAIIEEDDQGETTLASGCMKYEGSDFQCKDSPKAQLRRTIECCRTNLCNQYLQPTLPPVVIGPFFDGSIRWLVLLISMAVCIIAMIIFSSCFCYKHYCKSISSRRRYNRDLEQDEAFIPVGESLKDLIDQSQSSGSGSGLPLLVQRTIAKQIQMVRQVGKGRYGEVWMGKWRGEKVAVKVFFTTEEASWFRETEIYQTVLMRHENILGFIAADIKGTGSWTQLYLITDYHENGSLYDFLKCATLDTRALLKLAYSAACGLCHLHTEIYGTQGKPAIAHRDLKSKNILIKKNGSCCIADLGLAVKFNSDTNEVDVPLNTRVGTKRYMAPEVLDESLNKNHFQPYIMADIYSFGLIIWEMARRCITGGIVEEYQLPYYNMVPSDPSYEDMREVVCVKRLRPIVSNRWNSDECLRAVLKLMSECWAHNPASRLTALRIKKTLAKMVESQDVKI
- experimental-details: ALK3 enzyme inhibitory effect (33P-ATP kinase assay, Reaction Biology)
- Format: biochemical
- study-conditions: ALK3, test compound 300 nM; read-out: Inhibition rate at 300 nM
outcome-measure: inhibition at 0.3 µM (%)

CCn1cc(-c2ccnc(Nc3ccc(N4CCNCC4)c(F)c3)n2)c(-c2cccnc2)n1
53
CCn1cc(-c2ccnc(Nc3ccc4c(c3)CCNCC4)n2)c(-c2cccnc2)n1
67.1
CCn1cc(-c2ccnc(Nc3ccc4c(c3)CCN(C(=O)CO)C4)n2)c(-c2cccnc2)n1
74.6
CCn1cc(-c2ccnc(Nc3ccc4c(c3)CCN(C(C)=O)C4)n2)c(-c2cccnc2)n1
67.5
CCn1cc(-c2ccnc(Nc3ccc(-c4cnn(C5CCNCC5)c4)cc3)n2)c(-c2cccnc2)n1
67.5
CCn1cc(-c2ccnc(Nc3ccc(C(=O)N4CCN(c5ccc(F)cc5)CC4)cc3)n2)c(-c2cccnc2)n1
52
c1cncc(-c2nn(C3COC3)cc2-c2ccnc(Nc3ccc(N4CCNCC4)cc3)n2)c1
47.9
CCn1cc(-c2ccnc(Nc3ccc4c(c3)CCN(C)C4)n2)c(-c2cccnc2)n1
55.7
FC(F)Cn1cc(-c2ccnc(Nc3ccc(N4CCNCC4)cc3)n2)c(-c2cccnc2)n1
63.5
CC(C)(C)n1cc(-c2ccnc(Nc3ccc(N4CCNCC4)cc3)n2)c(-c2cccnc2)n1
60
CCn1cc(-c2ccnc(Nc3ccc4c(c3)CN(CCO)CC4)n2)c(-c2cccnc2)n1
62.4
CCn1cc(-c2ccnc(Nc3ccc(-c4cnn(CC(F)F)c4)cc3)n2)c(-c2cccnc2)n1
66.1
CCn1cc(-c2ccnc(Nc3ccc(C4CCNCC4)cc3)n2)c(-c2cccnc2)n1
49.5
CCn1cc(-c2ccnc(Nc3ccc(N4CCCCC4)cc3)n2)c(-c2cccnc2)n1
52.2
Fc1ccc(Cn2cc(-c3ccnc(Nc4ccc(N5CCNCC5)cc4)n3)c(-c3cccnc3)n2)cc1
54.3
CCn1cc(-c2ccnc(Nc3ccc4c(c3)CNCC4)n2)c(-c2cccnc2)n1
66.6
CCn1cc(-c2ccnc(Nc3ccc(N4CCN(CC(C)(C)O)CC4)cc3)n2)c(-c2cccnc2)n1
65.8
COCCn1cc(-c2ccnc(Nc3ccc(N4CCNCC4)cc3)n2)c(-c2cccnc2)n1
48
CCn1cc(-c2ccnc(Nc3ccc4c(c3)CCN(CCOC)C4)n2)c(-c2cccnc2)n1
59
c1ccc(CCn2cc(-c3ccnc(Nc4ccc(N5CCNCC5)cc4)n3)c(-c3cccnc3)n2)cc1
62.7
CCn1cc(-c2ccnc(Nc3ccc(N4CCN(CCOC)CC4)cc3)n2)c(-c2cccnc2)n1
50.4
CCn1cc(-c2ccnc(Nc3ccc(C(N)=O)cc3)n2)c(-c2cccnc2)n1
52
CCn1cc(-c2ccnc(Nc3ccc4c(c3)CCNC4)n2)c(-c2cccnc2)n1
67.3
CCn1cc(-c2ccnc(Nc3ccc(N4CCN(C5COC5)CC4)cc3)n2)c(-c2cccnc2)n1
51.4
CCn1cc(-c2ccnc(Nc3ccc(N4CCN(Cc5ccccc5)CC4)cc3)n2)c(-c2cccnc2)n1
59.3
CCn1cc(-c2ccnc(Nc3ccc(N4CCC(C)(N)CC4)cc3)n2)c(-c2cccnc2)n1
62.4

---

- System: BMP signal in MDA-231-D-BREFluc/Rluc cells
- experimental-details: BMP signal inhibitory effect (AlphaScreen SureFire SMAD1 p-Ser463/465, BMP-6 stimulation)
- Type: cell-based
- study-conditions: BMP-6 stimulated MDA-231-D-BREFluc/Rluc cells, phospho-SMAD1 AlphaScreen; read-out: IC50
pIC50: −log10 of the molar value.
outcome-measure: pIC50

Answered cases to consult:
CCn1cc(-c2ccc(Nc3nccc(-c4cn(CC)nc4-c4cccnc4)n3)cc2)cn1
7.23
CCn1cc(-c2ccnc(Nc3ccc(N4CCN(CCOCC5CC5)CC4)cc3)n2)c(-c2cccnc2)n1
7.88
CCn1cc(-c2ccnc(Nc3ccc(-c4cnn(C5CCNCC5)c4)cc3)n2)c(-c2cccnc2)n1
7.91
COCCN1CCN(c2ccc(Nc3nccc(-c4cn(C5CCOC5)nc4-c4cccnc4)n3)cc2)CC1 (centres unmarked)
7.34
CCn1cc(-c2ccnc(Nc3ccc(N4CCN(C(C)C)CC4)cc3)n2)c(-c2cccnc2)n1
7.89
CCn1cc(-c2ccnc(Nc3ccc(C(=O)N4CCCCC4)cc3)n2)c(-c2cccnc2)n1
7.39

A: CCn1cc(-c2ccnc(Nc3ccc(C4CCNCC4)cc3)n2)c(-c2cccnc2)n1
B: CCn1cc(-c2ccnc(Nc3ccc(N4CCC(N)CC4)cc3)n2)c(-c2cccnc2)n1
C: CCn1cc(-c2ccnc(Nc3cccc(C4CCN(C)CC4)c3)n2)c(-c2cccnc2)n1
D: CCn1cc(-c2ccnc(Nc3ccc(Cn4cncn4)cc3)n2)c(-c2cccnc2)n1
E: COCCn1cc(-c2ccnc(Nc3ccc(N4CCNCC4)cc3)n2)c(-c2cccnc2)n1
Sort these compounds on pIC50 so the largest reading comes first. Returns: the labels listed in the requested order.
C, A, B, E, D
(C: 9.05, A: 8.35, B: 7.85, E: 7.64, D: 7.43)

I: CCn1cc(-c2ccnc(Nc3ccc(N4CCC[C@H](N)C4)cc3)n2)c(-c2cccnc2)n1
II: CCn1cc(-c2ccnc(Nc3ccc(-n4cnc(N5CCN(C)CC5)n4)cc3)n2)c(-c2cccnc2)n1
Return label of the item with the larger pIC50. Candidates: I , II . Your choice should be expressed through its label.
II

---

- measured-target: human ALK6 (Homo sapiens (Human))
- Sequence (O00238 14-502): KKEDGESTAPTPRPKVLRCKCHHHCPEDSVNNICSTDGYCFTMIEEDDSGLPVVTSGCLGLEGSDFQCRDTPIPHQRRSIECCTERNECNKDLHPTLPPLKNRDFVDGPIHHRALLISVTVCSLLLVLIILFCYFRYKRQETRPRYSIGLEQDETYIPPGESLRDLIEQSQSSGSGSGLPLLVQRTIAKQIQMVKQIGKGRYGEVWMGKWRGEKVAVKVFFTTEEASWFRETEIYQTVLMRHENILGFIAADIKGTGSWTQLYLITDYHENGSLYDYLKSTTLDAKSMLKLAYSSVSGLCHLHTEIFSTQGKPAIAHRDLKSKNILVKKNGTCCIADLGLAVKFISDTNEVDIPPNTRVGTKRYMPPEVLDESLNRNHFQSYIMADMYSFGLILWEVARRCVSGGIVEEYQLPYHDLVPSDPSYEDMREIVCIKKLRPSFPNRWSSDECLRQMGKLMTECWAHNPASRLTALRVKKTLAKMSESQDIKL
- experimental-details: ALK6 enzyme inhibitory effect (33P-ATP kinase assay, Reaction Biology)
- Type: biochemical
- study-conditions: ALK6, test compound 300 nM; read-out: Inhibition rate at 300 nM
outcome-measure: inhibition at 0.3 µM (%)

CCn1cc(-c2ccnc(Nc3ccc4c(c3)CN(CCO)CC4)n2)c(-c2cccnc2)n1
94.3
CCn1cc(-c2ccnc(Nc3ccc(N4CCN(CCOC)CC4)cc3)n2)c(-c2cccnc2)n1
88
CCn1cc(-c2ccnc(Nc3ccc(C4CCNCC4)cc3)n2)c(-c2cccnc2)n1
94.2
CCn1cc(-c2ccnc(Nc3ccc4c(c3)CCNCC4)n2)c(-c2cccnc2)n1
98.3
CCn1cc(-c2ccnc(Nc3ccc(C(=O)N4CCN(c5ccc(F)cc5)CC4)cc3)n2)c(-c2cccnc2)n1
79.6
CCn1cc(-c2ccnc(Nc3ccc(S(=O)(=O)N(C)C4CCN(C(C)C)CC4)cc3)n2)c(-c2cccnc2)n1
87
CCn1cc(-c2ccnc(Nc3ccc(N4CCN(C5COC5)CC4)cc3)n2)c(-c2cccnc2)n1
90.2

---

- System: BMP signal in MDA-231-D-BREFluc/Rluc cells
- experimental-details: BMP signal inhibitory effect (AlphaScreen SureFire SMAD1 p-Ser463/465, BMP-6 stimulation)
- Assay type: cell-based
- study-conditions: BMP-6 stimulated MDA-231-D-BREFluc/Rluc cells, phospho-SMAD1 AlphaScreen; read-out: IC50
pIC50: −log10 of the molar value.
outcome-measure: pIC50

Answered cases to consult:
Fc1ccc(Cn2cc(-c3ccnc(Nc4ccc(N5CCNCC5)cc4)n3)c(-c3cccnc3)n2)cc1 [Example 139]
7.79
CCn1cc(-c2ccnc(Nc3ccc(N4CCCN(CCOC)CC4)cc3)n2)c(-c2cccnc2)n1 [Example 94]
7.61
CCn1cc(-c2ccnc(Nc3ccc(S(=O)(=O)N(C)C4CCN(C(C)C)CC4)cc3)n2)c(-c2cccnc2)n1 [Example 124]
7.80

I: N#Cc1ccccc1Cn1cc(-c2ccnc(Nc3ccc(N4CCNCC4)cc3)n2)c(-c2cccnc2)n1 [Example 157]
II: CCn1cc(-c2ccnc(Nc3ccc4c(c3)CNCC4)n2)c(-c2cccnc2)n1 [Example 169]
Hello, I am sorting some records. Could you say if I or II has the smaller pIC50 value? Your choice should be expressed through its label.
I
(I: 7.71, II: 8.80)

a: CCn1cc(-c2ccnc(Nc3cccc(CN(C)C)c3)n2)c(-c2cccnc2)n1 [Example 40]
b: CCn1cc(-c2ccnc(Nc3ccc(N4CCC5(CC4)CN(C(C)=O)C5)cc3)n2)c(-c2cccnc2)n1 [Example 21]
Return label of the item with the larger pIC50. Candidates: a , b . Your choice should be expressed through its label.
a
(a: 8.30, b: 7.41)

---

- Tested on: BMP signal in MDA-231-D-BREFluc/Rluc cells
- experimental-details: BMP signal inhibitory effect (AlphaScreen SureFire SMAD1 p-Ser463/465, BMP-6 stimulation)
- Format: cell-based
- study-conditions: BMP-6 stimulated MDA-231-D-BREFluc/Rluc cells, phospho-SMAD1 AlphaScreen; read-out: IC50
outcome-measure: IC50 (nM)

Answered cases to consult:
COCCN1CCN(c2ccc(Nc3nccc(-c4cn(CC5COC5)nc4-c4cccnc4)n3)cc2)CC1
50.4
CCn1cc(-c2ccnc(Nc3ccc(CCN4CCN(CCOC)CC4)cc3)n2)c(-c2cccnc2)n1
5.2
CCn1cc(-c2ccnc(Nc3ccc(N4CCN(CC(O)COC)CC4)cc3)n2)c(-c2cccnc2)n1 (centres unmarked)
33.7
c1cncc(Cn2cc(-c3ccnc(Nc4ccc(N5CCNCC5)cc4)n3)c(-c3cccnc3)n2)c1
55.2
CCn1cc(-c2ccnc(Nc3cccc(OC4CCNCC4)c3)n2)c(-c2cccnc2)n1
22.6
CCn1cc(-c2ccnc(Nc3ccc(N4CCC(C)(N(C)C)CC4)cc3)n2)c(-c2cccnc2)n1
6.8
CCn1cc(-c2ccnc(Nc3ccc(N4CCN(C5COC5)CC4)cc3)n2)c(-c2cccnc2)n1
30.1
c1ccc(CCn2cc(-c3ccnc(Nc4ccc(N5CCNCC5)cc4)n3)c(-c3cccnc3)n2)cc1
7.3
CCn1cc(-c2ccnc(Nc3ccc(N4CCCCC4)cc3)n2)c(-c2cccnc2)n1
28.1

a: CCn1cc(-c2ccnc(Nc3ccc(N4CCN(CCOC)CC4)cc3)n2)c(-c2cccnc2)n1
b: CCn1cc(-c2nc(Nc3ccc(N4CCNCC4)cc3)ncc2F)c(-c2cccnc2)n1
Return label of the item with the larger IC50. Candidates: a , b . Your choice should be expressed through its label.
b
